The reported numbers originate from paper PMC7725003.

system: S. epidermidis 12228; type: cell-based, Staphylococcus epidermidis; conditions: 12228, 24 h
Where no end group is shown, it is not given here.
Would you kindly list log10 of MBC for each of these substances?
Hi team, quick reminder: these entries are log10 of MBC (µM).

Please tell me: log10 of MBC of WRRWRWWRW-NH2 [W12] , system S. epidermidis 12228?
0.60

Find the measured log10 of MBC: item RRWWWWRRW-NH2 [W7] , target or system S. epidermidis 12228.
0.60

Which measured log10 of MBC belongs to RWWWWRRWR-NH2 [W10] , tested on S. epidermidis 12228?
0.60

log10 of MBC of WRRWRWRWW-NH2 [W3] on S. epidermidis 12228?
0.60

Reported log10 of MBC for S. epidermidis 12228, given WWRWWRRRW-NH2 [W1] ?
0.60

Fill in the recorded log10 of MBC for this substance, with S. epidermidis 12228 as test system: WRRRRWWWW-NH2 [W11]
0.60

# returns recorded log10 of MBC (system: S. epidermidis 12228) for RRWWWRWRW-NH2 [W8]
0.60

For S. epidermidis 12228, provide log10 of MBC of WRRRWWWWR-NH2 [W6] please.
0.90

Entry RLRLRLRLL-NH2 [L5] , system S. epidermidis 12228: what log10 of MBC was measured?
1.20

Value wanted: log10 of MBC (S. epidermidis 12228) of entry WWRWRRRWW-NH2 [W2]
0.60

Reported log10 of MBC for S. epidermidis 12228, given RWRWRRWWW-NH2 [W9] ?
0.60

Look up log10 of MBC with S. epidermidis 12228 for this substance: RRLLLRLRL-NH2 [L8]
1.81

I'm curious: which log10 of MBC was measured for WWWRRRRWW-NH2 [W4] tested on S. epidermidis 12228?
0.60

Query the reported log10 of MBC for S. epidermidis 12228; item: RWRWRWRWW-NH2 [W5]
0.60

Missing value: log10 of MBC, S. epidermidis 12228, entry LLRLLRRRL-NH2 [L1] . Fill in?
1.51

---

tested on: S. aureus 25923; format: cell-based, Staphylococcus aureus; conditions: 25923, 24 h
Where no end group is shown, it is not given here.
experimental.readout: MIC (µM)
Express the result in µM but write the number alone.

Need MIC of WWRWRRRWW-NH2 [W2] , thanks.
2

Which MIC is listed for WRRRRWWWW-NH2 [W11] ?
2

Any idea what its MIC is? The substance is WRRRWWWWR-NH2 [W6]
2

Give its MIC value. Item: WRRWRWRWW-NH2 [W3]
4

Fill in: MIC of RRWWWRWRW-NH2 [W8] is ___
2

Give its MIC value. Item: RLRLRLRLL-NH2 [L5]
8

Given WRRWRWWRW-NH2 [W12] , state its recorded MIC.
2

Need MIC of RRLLLRLRL-NH2 [L8] , thanks.
64

Return reported MIC; argument: RWWWWRRWR-NH2 [W10]
2

Sample RWRWRWRWW-NH2 [W5] — what was its MIC?
2

I would be grateful if you could share the reported MIC for RRWWWWRRW-NH2 [W7] .
2

Could you share which MIC value was measured for WWRWWRRRW-NH2 [W1] ?
2

Given the entry LLRLLRRRL-NH2 [L1] , report its measured MIC.
32

Item under review: WWWRRRRWW-NH2 [W4] . Reported MIC?
2

Dear colleague, I am looking for the recorded MIC of the following substance: RWRWRRWWW-NH2 [W9]
2
